Tested on: OVCAR-4 ovarian
Assay: NCI-60 one-dose screen, 48 h
Settings: 10 µM unless noted
Compounds without any hit were thinned out: in the full panel of roughly 83,000, 20% have a hit. The source made the active and inactive calls. How the source made its calls: active means growth percent below 10; inactive means the rest.
Outcome codes: active, inactive

{"COMPOUND": "COc1ccc(NC(=O)C2c3ccccc3C(=O)N(CC(C)C)C2c2cccs2)cc1 (stereo unspecified)", "LABEL_VALUE": "inactive"}
{"COMPOUND": "CC(C)(C)c1ccc(Cn2c(-c3nonc3N)nc3ccccc32)cc1", "LABEL_VALUE": "inactive"}
{"COMPOUND": "CCCCC(CCc1ccccn1)C(=O)c1ccccc1 (stereo unspecified)", "LABEL_VALUE": "inactive"}
{"COMPOUND": "CC1=NOCC(=O)N1", "LABEL_VALUE": "inactive"}
{"COMPOUND": "CC(=O)Nc1ccc(Cl)cc1Cl", "LABEL_VALUE": "inactive"}
{"COMPOUND": "CCSc1ccc([C@@H]2[C@@H](O)C(=O)N2c2cc(OC)c(OC)c(OC)c2)cc1", "LABEL_VALUE": "inactive"}
{"COMPOUND": "COc1ccc(-c2nc(-c3cc(OC)cc(OC)c3)[nH]c2-c2ccc(OC)cc2)cc1", "LABEL_VALUE": "inactive"}
{"COMPOUND": "N#Cc1nc(-c2cccc(Br)c2)cc(-c2ccc(Nc3nc(N4CCCCC4)nc(N4CCCCC4)n3)cc2)c1N", "LABEL_VALUE": "active"}
{"COMPOUND": "CCOc1c(C#N)c2c(N)ncnc2n1C1OC(CO)C(O)C1O (stereo unspecified)", "LABEL_VALUE": "inactive"}
{"COMPOUND": "COc1ccc(C2=Nn3c(nnc3-c3ccc(Cl)cc3N)SC2)cc1", "LABEL_VALUE": "inactive"}
{"COMPOUND": "N=c1n(Cc2ccccc2)c(N)cc(=O)n1Cc1ccccc1", "LABEL_VALUE": "inactive"}

###

System: HCC-2998 colon
Experiment: NCI-60 one-dose screen, 48 h
Conditions: 10 µM unless noted
The panel holds about 83,000 compounds, 20% with a hit somewhere; the sample as a whole holds those more often. Activity calls are given as the source filed them. Rule for the calls: active = growth percent below 10; inactive = the rest.
Outcome codes: active, inactive

{"MOLECULE": "CCCc1n(Cc2ccc3ccccc3c2)c2ccccc2[n+]1Cc1ccc2ccccc2c1", "TARGET_UNDER_TEST": "HCC-2998 colon", "LABEL_VALUE": "active"}
{"MOLECULE": "CC(C)[C@H](CN)NC[C@H](C)NS(=O)(=O)c1ccc(C(C)(C)C)cc1", "TARGET_UNDER_TEST": "HCC-2998 colon", "LABEL_VALUE": "inactive"}
{"MOLECULE": "COC(=O)c1ccc(NC(N)=NCCC(C)(C)c2ccc(C(F)(F)F)cc2)nc1", "TARGET_UNDER_TEST": "HCC-2998 colon", "LABEL_VALUE": "active"}
{"MOLECULE": "CC(=O)c1c(O)c(C)c(O)c2c1OC1=CC(=O)/C(=C(/C)N)C(=O)C12C (centres undefined)", "TARGET_UNDER_TEST": "HCC-2998 colon", "LABEL_VALUE": "inactive"}
{"MOLECULE": "COc1cc(C)cc2oc3oc(=O)c(-c4csc(-c5cc6ccccc6oc5=O)n4)cc3c(=O)c12", "TARGET_UNDER_TEST": "HCC-2998 colon", "LABEL_VALUE": "inactive"}
{"MOLECULE": "CN1CCN(Cc2ccc(NC(=O)c3cnc(F)c(C#Cc4cnc(N)c5ncccc45)c3)cc2C(F)(F)F)CC1", "TARGET_UNDER_TEST": "HCC-2998 colon", "LABEL_VALUE": "inactive"}
{"MOLECULE": "CCSc1ccc([C@@H]2[C@@H](N)C(=O)N2c2cc(OC)c(OC)c(OC)c2)cc1", "TARGET_UNDER_TEST": "HCC-2998 colon", "LABEL_VALUE": "inactive"}
{"MOLECULE": "CCCOC(=O)C1c2cc3c(cc2CC(C)C1C(=O)OCCC)OCO3 (centres undefined)", "TARGET_UNDER_TEST": "HCC-2998 colon", "LABEL_VALUE": "inactive"}
{"MOLECULE": "COC(=O)c1cc2oc(/C=N/NC(=O)c3cc4oc(-c5cccc(C(F)(F)F)c5)cc4[nH]3)cc2n1Cc1ccccc1", "TARGET_UNDER_TEST": "HCC-2998 colon", "LABEL_VALUE": "inactive"}
{"MOLECULE": "Brc1cccc(-n2ncc3c(Nc4ccc(-c5nnc(-c6ccccc6)o5)cc4)ncnc32)c1", "TARGET_UNDER_TEST": "HCC-2998 colon", "LABEL_VALUE": "inactive"}
{"MOLECULE": "c1ccc2c(Cc3csc4ccccc34)csc2c1", "TARGET_UNDER_TEST": "HCC-2998 colon", "LABEL_VALUE": "inactive"}
{"MOLECULE": "O=C(/C=C/c1cc([N+](=O)[O-])ccc1Cl)c1ccccc1", "TARGET_UNDER_TEST": "HCC-2998 colon", "LABEL_VALUE": "inactive"}
{"MOLECULE": "CC(=O)OC1Oc2ccccc2-c2oc3nc(=N)n(C)c-3cc21 (centres undefined)", "TARGET_UNDER_TEST": "HCC-2998 colon", "LABEL_VALUE": "inactive"}
{"MOLECULE": "C=CCn1c(C)nc2cc(Nc3nc(N4CCCC4)nc4nc[nH]c34)ccc21", "TARGET_UNDER_TEST": "HCC-2998 colon", "LABEL_VALUE": "inactive"}
{"MOLECULE": "CC(C)N=C1CCCC1C(=S)SSC(=S)C1CCCC1=NC(C)C (centres undefined)", "TARGET_UNDER_TEST": "HCC-2998 colon", "LABEL_VALUE": "inactive"}
{"MOLECULE": "CC(=O)O[C@H]1[C@H](CC#CC#CC[C@@H]2C[C@]3(C)[C@H]4CC=C5[C@H]6[C@@H](C)[C@H](C)CC[C@]6(C(=O)NCCN(CCN)CCN)CC[C@@]5(C)[C@]4(C)CC[C@H]3C(C)(C)[C@H]2OC(C)=O)C[C@]2(C)[C@H]3CC=C4[C@H]5[C@@H](C)[C@H](C)CC[C@]5(C(=O)NCCN(CCN)CCN)CC[C@@]4(C)[C@]3(C)CC[C@H]2C1(C)C", "TARGET_UNDER_TEST": "HCC-2998 colon", "LABEL_VALUE": "inactive"}
{"MOLECULE": "CN1CCN(Cc2ccc(NC(=O)c3cncc(C#Cc4cnc5cccnn45)c3)cc2C(F)(F)F)CC1", "TARGET_UNDER_TEST": "HCC-2998 colon", "LABEL_VALUE": "active"}
{"MOLECULE": "C/C(=N\\NC(=S)N1CCCCC1)c1ccccn1", "TARGET_UNDER_TEST": "HCC-2998 colon", "LABEL_VALUE": "inactive"}
{"MOLECULE": "CC[C@H](Nc1nc(C)nc(N)c1C#N)c1nc2cccc(NCc3ccc(C(=O)NO)cc3)c2c(=O)n1-c1ccccc1", "TARGET_UNDER_TEST": "HCC-2998 colon", "LABEL_VALUE": "active"}
